- System: HT29 colon
- MEASUREMENT DESCRIPTION: NCI tumour cell line growth inhibition, 48 h
Overview of recorded GI50 for various compounds

Worked set:
> print(dat)
                                   compound  measured.property   result
1  O=C1NC(=O)/C(=C/c2ccc3nccc(-c4ccncc4)c3c2)S1               GI50   423 nM
2  COc1ccc(C2CC(=O)Nc3c2c(C)nn3-c2nc3ccccc3[nH]2)cc1OC (stereo not given)               GI50  5660 nM

QUERY: Return reported GI50. Input compound: `Cc1c(-c2c(F)cc(C(N)=O)c3[nH]c4c(c23)CC[C@H](C(C)(C)O)C4)cccc1-n1c(=O)c2cccc(F)c2n(C)c1=O`
RESULT: 864 nM

QUERY: Name the recorded GI50 of the item CCN1C(=O)N(CC)C2C1NN=c1s/c(=C\c3ccc(Br)cc3)c(=O)n12 (stereo not given) in your answer.
RESULT: 75.7 nM

QUERY: Report measured GI50; entry is `O=C(O)[C@@H](Cc1ccccc1)NS(=O)(=O)c1ccc(-c2ccccc2)cc1`
RESULT: > 100000 nM

---

- Tested on: BT-549 breast
- MEASUREMENT DESCRIPTION: NCI tumour cell line growth inhibition, 48 h; in the data active = GI50 below about 0.43 µM; inactive = the rest
Your answer must be one of the following: 1.0 (active), 0.0 (inactive)

> print(dat)
                                   compound  label.value
1  Fc1ccc(Nc2ccnc(N3CCN(c4ccnc5cc(Cl)ccc45)CC3)n2)cc1          0.0
2            Cc1cccc(Nc2ncc(-c3ccccc3)o2)c1          0.0

QUERY: Dear colleague, could you share the recorded outcome for `Cc1cc(C(=O)NOCCO)c(Nc2ccc(I)cc2F)n(C)c1=O` when you have a moment?
RESULT: 0.0

QUERY: Entry `Cc1cc(S(=O)(=O)Nc2nc3ccccc3s2)c(SCc2ccccc2)cc1Cl` : call = ?
RESULT: 0.0

QUERY: Record lookup: outcome of this test for `c1ccc(OCC[P+](c2ccccc2)(c2ccccc2)c2ccccc2)cc1` ?
RESULT: 0.0

---

- System: SK-OV-3 ovarian
- MEASUREMENT DESCRIPTION: NCI tumour cell line growth inhibition, 48 h
MEASURED PROPERTY: TGI

Below: 2 compounds and their reported TGI.
COMPOUND	EXPERIMENTAL TARGET	MEASURED PROPERTY	RESULT
Nc1ncnc2c1ncn2Cc1ccc(CCl)cc1	SK-OV-3 ovarian	TGI	40.8 µM
COC1C[C@H](O[C@@H]2C[C@H](O[C@@H]3C[C@H](O[C@@H]4C(=O)c5c(cc6cc(O[C@H]7C[C@@H](O[C@H]8C[C@@H](O)[C@H](O)C(C)O8)[C@H](O)C(C)O7)c(C)c(O)c6c5O)C[C@H]4C(OC)C(=O)[C@@H](O)[C@@H](C)O)OC(C)[C@H]3O)OC(C)[C@@H]2O)OC(C)[C@@H]1O (stereo not given in full)	SK-OV-3 ovarian	TGI	> 32.5 µM

QUERY: Annotate the compound `COc1ccc(C2=Nn3c(nc4sc5c(c4c3=O)CCCC5)SC2)cc1` with its measured TGI.
RESULT: > 100 µM

QUERY: Answer with reported TGI of CC(=O)OC1CC[C@@]2(C)C(=CC[C@@H]3[C@@H]2CC[C@]2(C)Nc4c(cnn4-c4ccc(F)cc4)C[C@@H]32)C1 (stereo not given in full)
RESULT: > 100 µM

QUERY: Return value of TGI for input `O=C1C(Nc2ccc(S(=O)(=O)Nc3cnc4ccccc4n3)cc2)=CC(=Nc2ccc(S(=O)(=O)Nc3cnc4ccccc4n3)cc2)c2ccccc21` , no commentary.
RESULT: 31 µM

QUERY: Consider the compound `CCCCCCCC(=O)[O-].N.N.N.N.N.[Co+3].[O-][Cl+3]([O-])([O-])[O-]` . State its measured TGI.
RESULT: > 100 µM

QUERY: Give the reported value of TGI for this record: `Clc1ccc(Nc2nnc(COc3ccccc3)c3ccccc23)cc1`
RESULT: 9.96 µM

---

- Tested on: SN12C renal
- MEASUREMENT DESCRIPTION: NCI tumour cell line growth inhibition, 48 h
Documented TGI across a set of molecules

Example entries and their recorded answers appear below.
> print(dat)
                                   molecule  measured.property     result
1  CC(=O)Nc1ccc2c(c1)[nH]c(=O)c1cc(NC(C)=O)ccc12                TGI   > 100 µM
2  Nc1ccc(Oc2ccc(C34CC5CC(C3)CC(c3ccc(Oc6ccc(N)c(O)c6)cc3)(C5)C4)cc2)cc1O                TGI  > 21.2 µM
3  CCOP(=O)(OCC)C(Cc1cn(S(=O)(=O)c2ccc(C)cc2)cn1)C(=O)O (stereo not given)                TGI   > 100 µM
4  Cn1cnc([N+](=O)[O-])c1Sc1nnc(-c2ccc(Cl)cc2)n1C                TGI    28.4 µM

For the next question, use this molecule.
QUERY: Output reported TGI of the molecule `OC[C@@H](O)[C@H](O)[C@H](O)[C@@H](O)C1SCCCS1` on SN12C renal.
RESULT: > 100 µM

---

- Test system: EKVX NSCLC
- MEASUREMENT DESCRIPTION: NCI tumour cell line growth inhibition, 48 h; in the data active means GI50 below about 0.43 µM; inactive means the rest
Your response should consist of one outcome taken from active, inactive

Consider the worked cases shown below.
> print(dat)
                                   molecule  label.value
1  CC1(/C=C/c2ccc(-c3ccccc3)cc2)CCn2cnc3ncnc(c32)N1O (stereo not given)       active
2  CCN1C(=O)N(CC)C2C1NN=c1s/c(=C\c3ccc(Br)cc3)c(=O)n12 (stereo not given)     inactive

QUERY: Called result for `COc1cc(/C=C/[N+](=O)[O-])cc(OC)c1`
RESULT: inactive

QUERY: # fetch the recorded call for `CN1c2cccc[c]2[Sn]([CH3])([CH3])[c]2ccccc21` here
RESULT: active

QUERY: Any idea what this test logged for `c1ccc2cc(Cn3c(-c4cccc5ccccc45)[n+](Cc4ccc5ccccc5c4)c4c5ccccc5c5ccccc5c43)ccc2c1` ?
RESULT: active

---

- Test system: SF-539 CNS
- MEASUREMENT DESCRIPTION: NCI tumour cell line growth inhibition, 48 h
Measured TGI, listed per entry.

Observe how each entry below is paired with its result.
> print(dat)
                                   compound  measured.property     result
1  CCOP(=O)(OCC)C(Cc1cn(S(=O)(=O)c2ccc(C)cc2)cn1)C(=O)O (stereo unspecified)                TGI   > 100 µM
2  COc1ccc(C2[C@@H](Cl)C(=O)N2c2ccc(OC)cc2)cc1 (stereo partly specified)                TGI    49.8 µM
3  C1=Nc2ccc(cc2)-c2ccc(cc2)N=Cc2ccccc2OCc2cccc(n2)COc2ccccc21                TGI  > 66.3 µM
4  CN(C)CC(O)CNC(=O)Nc1ccccc1 (stereo unspecified)                TGI   > 100 µM
5  CC1(/C=C/c2ccc(-c3ccccc3)cc2)CCn2cnc3ncnc(c32)N1O (stereo unspecified)                TGI    5.55 µM

QUERY: Input CCN1CC2(CO)CCC(OC)C34C5CC6C(OC)CC(O)(C5C6OC)C(O)(C(OC)C23)C14 (stereo unspecified) , output reported TGI.
RESULT: > 375 µM

QUERY: Return reported TGI. Input compound: `Nc1[nH]c(=S)[nH]c(=O)c1N=Nc1c(Br)cc(S(N)(=O)=O)cc1Br`
RESULT: > 100 µM

QUERY: Quickly give me recorded TGI for `Cc1c2cc[n+](C)cc2c(C)c2c1[nH]c1ccc(OC(C)(C)C)cc12`
RESULT: > 100 µM

QUERY: Answer with reported TGI of `Cc1cc2nc3c(C)c4ccccc4c(C)n3c2cc1C`
RESULT: 4.88 µM

QUERY: Complete the entry with TGI for `N#Cc1ccccc1C#C/C=C\C#Cc1ccccn1`
RESULT: 45.1 µM

QUERY: Please report TGI for the following compound: `O=C(Nc1ccc(-c2cn3ccccc3n2)cc1)c1cc(Br)ccc1O`
RESULT: > 100 µM

---

- System: KM12 colon
- MEASUREMENT DESCRIPTION: NCI tumour cell line growth inhibition, 48 h; in the data active = GI50 below about 0.43 µM; inactive = the rest
Give one outcome, nothing more. List: 1 = active, -1 = inactive

COMPOUND	LABEL VALUE
N/C(=N/O)NOCCC(N)C(=O)O (configuration not stated)	-1
Fc1ccc(Nc2ccnc(N3CCN(c4ccnc5cc(Cl)ccc45)CC3)n2)cc1	-1
C/C=C1/CN2CCC34c5ccccc5N5C(=O)C(C6CC78c9ccccc9N9C(=O)C=CC(C%10CC7N6C/C%10=C/C)C98)=CC(C1CC23)C54 (configuration not stated)	-1
C#Cc1cccc(NC(=O)C2CCCCN2C(=O)CCl)c1 (configuration not stated)	-1
O=C(Nc1c(Cl)cccc1Cl)Oc1cccc2cccnc12	-1
Nc1ncnc2c1ncn2Cc1ccc(CCl)cc1	-1

QUERY: Outcome logged for `Cn1cc(-c2nc(-c3c[nH]c4ccccc34)cs2)c2cccnc21` in this assay:
RESULT: 1
